# assay name: Single-dose pharmacokinetic study, artemether sublingual spray vs oral tablets
# Format: in vivo, human
# test conditions: male, human, plasma, 15 mg, T1: single sublingual 15 mg Artemether sublingual spray, 3 mg per actuation; n = 16; mean ± SD; read-out: t1/2 elimination half-life, Plasma Artemether (converted)
# Method: Trials were carried out on healthy male adult human volunteers (16 subjects per cohort), and subject to normal ethical approval. […] Following administration of each dosage regime, blood samples were taken from the subjects, and plasma concentrations of artemether and its immediate metabolite dihydroartemesinin were determined, in order to compare bioavailability by the two routes.
readout: half-life (min)
One number for each entry, in min.

// half-life value for CO[C@H]1O[C@@H]2O[C@@]3(C)CC[C@H]4[C@H](C)CC[C@@H]([C@H]1C)[C@@]24OO3 : 43.2

###

# assay name: Single-dose pharmacokinetic study, artemether sublingual spray vs oral tablets
# Format: in vivo, human
# test conditions: male, human, plasma, 30 mg, T3: single sublingual 30 mg Artemether sublingual spray, 6 mg per actuation; n = 16; mean ± SD
readout: Tmax (h)
Answers are plain numbers, in h.

// Tmax value for CO[C@H]1O[C@@H]2O[C@@]3(C)CC[C@H]4[C@H](C)CC[C@@H]([C@H]1C)[C@@]24OO3 : 1.67

###

# assay name: Single-dose pharmacokinetic study, artemether sublingual spray vs oral tablets
# Format: in vivo, human
# test conditions: male, human, plasma, 30 mg, T3: single sublingual 30 mg Artemether sublingual spray, 6 mg per actuation; n = 16; mean ± SD; read-out: t1/2 elimination half-life, Plasma Artemether (converted)
readout: half-life
Please format your answer as a value with the unit trailing.

// half-life value for CO[C@H]1O[C@@H]2O[C@@]3(C)CC[C@H]4[C@H](C)CC[C@@H]([C@H]1C)[C@@]24OO3 : 1.4 h

###

# assay name: Single-dose pharmacokinetic study, artemether sublingual spray vs oral tablets
# Type: in vivo, human
# test conditions: male, human, plasma, 30 mg, T2: single sublingual 30 mg Artemether sublingual spray, 3 mg per actuation; n = 16; mean ± SD
readout: Cmax (ng/mL)
Give bare numbers, in ng/mL.

// Cmax value for CO[C@H]1O[C@@H]2O[C@@]3(C)CC[C@H]4[C@H](C)CC[C@@H]([C@H]1C)[C@@]24OO3 [Artemether] : 32.1

###

# assay name: Single-dose pharmacokinetic study, artemether sublingual spray vs oral tablets
# Format: in vivo, human
# test conditions: male, human, plasma, other: sublingual, 30 mg, T2 (30 mg sublingual spray, 3 mg/actuation) vs T4 (30 mg oral tablets); ± S.D.; read-out: F-value FT2-T4 (relative bioavailability of artemether)
readout: bioavailability (%)
Give bare numbers, in %.

// bioavailability value for CO[C@H]1O[C@@H]2O[C@@]3(C)CC[C@H]4[C@H](C)CC[C@@H]([C@H]1C)[C@@]24OO3 : 224

###

# assay name: Single-dose pharmacokinetic study, artemether sublingual spray vs oral tablets
# Assay type: in vivo, human
# test conditions: male, human, plasma, 15 mg, T1: single sublingual 15 mg Artemether sublingual spray, 3 mg per actuation; n = 16; mean ± SD; read-out: V/F apparent volume of distribution, Plasma Artemether
readout: Vd/F (L)
One number for each entry, in L.

// Vd/F value for CO[C@H]1O[C@@H]2O[C@@]3(C)CC[C@H]4[C@H](C)CC[C@@H]([C@H]1C)[C@@]24OO3 : 680
